Recorded pEC50 by entry
system: HIV-1IIIB; test: Syncytia inhibition assay (HIV-1IIIB infected C8166 cells); format: cell-based; conditions: HIV-1IIIB infected C8166 cells, 72 h; means of two separate experiments; read-out: EC50 (50% effective concentration, reduces syncytia formation by 50%)
pEC50: −log10 of the molar value.
QUANTITY MEASURED: pEC50

>>> df
                                   molecule  quantity_measured  assay_result
0  Cc1cn([C@H]2C[C@H](N=[N+]=[N-])[C@@H](CO)O2)c(=O)[nH]c1=O [AZT, reference compound]              pEC50          8.07
1  COc1cccc(C2=NN(c3ccc(C)cc3)C3C(=O)N(CCc4ccc(F)cc4)C(=O)C23)c1O (stereo not drawn) [15i]              pEC50          5.39
2  COc1cccc(C2=NN(c3ccc(F)cc3)C3C(=O)N(CCc4ccc(F)cc4)C(=O)C23)c1O (stereo not drawn) [9g]              pEC50          5.40

###

system: C8166 cells; assay: Cytotoxicity assay (MTT); assay type: cell-based; conditions: C8166 cells, MTT, 72 h; means of two separate experiments; read-out: CC50 (50% cytotoxic concentration)
QUANTITY MEASURED: CC50

>>> print(df.to_string())
                                   compound  assay_result
0  Cc1cn([C@H]2C[C@H](N=[N+]=[N-])[C@@H](CO)O2)c(=O)[nH]c1=O [AZT, reference compound]       3.78 mM

###

test system: HIV-1IIIB; assay: Syncytia inhibition assay (HIV-1IIIB infected C8166 cells); assay type: cell-based; details: CC50 in C8166 cells / EC50 syncytia inhibition
We'd kindly ask you to apply these TI (in vitro therapeutic index, CC50 value/EC50 value) classes: low (below 5), mid (5 to below 8), high (8 or more)

>>> print(df.to_string())
                                    molecule  discrete_label
 0  O=C1C2C(c3cc(F)ccc3O)=NN(c3ccc(F)cc3)C2C(=O)N1CCc1ccc(F)cc1 (stereo not shown) [9c]            high
 1  COc1cccc(C2=NN(c3ccc(S(N)(=O)=O)cc3)C3C(=O)N(CCc4ccc(F)cc4)C(=O)C23)c1O (stereo not shown) [15g]             low
 2  O=C1C2C(c3ccccc3)=NN(c3ccc(F)cc3)C2C(=O)N1CCc1ccc(F)cc1 (stereo not shown) [7b]            high
 3  COc1cccc(C2=NN(c3ccc(F)cc3)C3C(=O)N(CCc4ccc(F)cc4)C(=O)C23)c1OC (stereo not shown) [12a]            high
 4  COc1ccc(CCN2C(=O)C3C(c4cccc(OC)c4O)=NN(c4ccc(F)cc4)C3C2=O)cc1 (stereo not shown) [16e]             low
 5  COc1c(O)cccc1C1=NN(c2ccc(F)cc2)C2C(=O)N(CCc3ccc(F)cc3)C(=O)C12 (stereo not shown) [7a]             mid
 6  COc1cccc(C2=NN(c3ccc(F)cc3)C3C(=O)N(CCc4cccc(F)c4)C(=O)C23)c1O (stereo not shown) [16b]            high
 7  COc1cccc(C2=NN(c3ccc(F)cc3)C3C(=O)N(CCc4ccc(F)cc4)C(=O)C23)c1O (stereo not shown) [9g]            high
 8  COc1ccc(N2N=C(c3cccc(OC)c3O)C3C(=O)N(CCc4ccc(F)cc4)C(=O)C32)cc1 (stereo not shown) [15j]            high
 9  O=C1C2C(c3c(O)ccc4ccccc34)=NN(c3ccc(F)cc3)C2C(=O)N1CCc1ccc(F)cc1 (stereo not shown) [compound 13]             low
10  O=C1C2C(c3cccc([N+](=O)[O-])c3O)=NN(c3ccc(F)cc3)C2C(=O)N1CCc1ccc(F)cc1 (stereo not shown) [9e]             mid
11  COc1cccc(C2=NN(c3ccc(F)cc3)C3C(=O)N(CCc4ccccc4)C(=O)C23)c1O (stereo not shown) [16d]            high
